Tested on: Escherichia coli
Assay: Inhibition of Escherichia coli C-terminal hexahistidine tagged DHFR at 5 uM incubated for 5 mins in presence of NADPH by measuring oxidation of NADPH to NADP+
Give T when the value for inhibition is at least 80%. Give F when it is less.

[
  {
    "CHEM SMILES": "Nc1nc(N)c2c(ccc3c2ccn3Cc2cccc(F)c2)n1",
    "ANSWER LABEL": "F"
  },
  {
    "CHEM SMILES": "Nc1nc(N)c2c(ccc3c2ccn3Cc2cccc(C(=O)N3CCOCC3)c2)n1",
    "ANSWER LABEL": "T"
  },
  {
    "CHEM SMILES": "Nc1nc(N)c2c(ccc3c2ccn3Cc2nnc(-c3ccc(C(F)(F)F)cc3)o2)n1",
    "ANSWER LABEL": "F"
  },
  {
    "CHEM SMILES": "Nc1nc(N)c2c(ccc3c2ccn3Cc2cccs2)n1",
    "ANSWER LABEL": "T"
  },
  {
    "CHEM SMILES": "Nc1nc(N)c2c(ccc3c2ccn3CC2CC2)n1",
    "ANSWER LABEL": "F"
  }
]

Would you say `COc1cc(Cc2cnc(N)nc2N)cc(OC)c1OC` shows inhibition at minimum 80%?
T

Would you say `COc1ccc(Cn2ccc3c4c(N)nc(N)nc4ccc32)cc1` shows inhibition at minimum 80%?
F

Would you say `CCn1ccc2c3c(N)nc(N)nc3ccc21` shows inhibition at minimum 80%?
F

Would you say `Nc1nc(N)c2c(ccc3c2ccn3Cc2ccccc2F)n1` shows inhibition at minimum 80%?
F
